biological target: human β2AR (human, UniProt P07550 2-365); test: cell-based or functional assay
Bridge positions count the residues as written; N and C are the ends. Square brackets hold non-standard residues; d marks the D form. Primed or numbered codes have the meaning given here. Azk = residue with azidated side chain, clicked to Pra; Pra′ = residue with alkynyl side chain, clicked to Azk; 2Nal = N[C@@H](Cc1ccc2ccccc2c1)C(=O)O
Decision: Shift (averaged) >= 30 yields Met, all other cases yield Not met.

binder="Ac-KKKFN[Pra′]CRD[Azk]IQRMHLRQWELL-OH (triazole 6-10) [compound 56]" answerlabel=Met
binder="Ac-FN[Pra′]CRD[Azk]IQRMHLRQYQLL-OH [compound 27]" answerlabel="Not met"
binder="Ac-FNDCRDIIQRMHLRQYEWL-OH [compound 69]" answerlabel="Not met"
binder="Ac-KKKFN[Pra′]CRD[Azk]IQRMHLRQ[2Nal]ELL-OH (triazole 6-10) [compound 58]" answerlabel=Met
binder="Ac-KFN[Pra′]CRD[Azk]IQRMHLRQYDLL-OH (triazole 4-8) [compound 54]" answerlabel=Met

Okay, now this binder:
Task: Shift (averaged) >= 30 for Ac-FNDCRDIIQRMHLRQAELL-OH [compound 78] ?
Output: Not met
